# System: SW480
# assay_text: Antiproliferative activity against human SW480 cells after 72 hrs
# Assay type: functional, cell-based
# condition_description: SW480, 72 h
With a cut-off of 5 µM, any IC50 strictly below it is called Criterion met; any IC50 meeting it or above is called Criterion not met.

[
  {
    "structure_as_smiles": "COC(=O)c1cc(O)c2[nH]c3ncccc3c2c1",
    "assay_system": "SW480",
    "label_class": "Criterion not met"
  },
  {
    "structure_as_smiles": "COC(=O)c1cc(OC)c2[nH]c3ncccc3c2c1",
    "assay_system": "SW480",
    "label_class": "Criterion met"
  },
  {
    "structure_as_smiles": "COC(=O)c1cc(OC)c2[nH]c3ccccc3c2c1",
    "assay_system": "SW480",
    "label_class": "Criterion not met"
  },
  {
    "structure_as_smiles": "COC(=O)c1cc(O)c2[nH]c3ccccc3c2c1",
    "assay_system": "SW480",
    "label_class": "Criterion met"
  },
  {
    "structure_as_smiles": "COc1cc(CO)cc2c1[nH]c1ncccc12",
    "assay_system": "SW480",
    "label_class": "Criterion not met"
  }
]

Confirm or reject: IC50 of `O=c1[nH]cc(F)c(=O)[nH]1` lies strictly below 5 µM Criterion met
